Please go through the items and note down their Ratio CC50/EC50.
Experiment: Selectivity index, ratio of CC50 for human HBI10A cells to EC50 for HCV infected in human HBI10A cells

q: Looking for the measured Ratio CC50/EC50 of COC(=O)[C@H](C)NP(=O)(OC[C@H]1O[C@@H](n2ccc(N)nc2=O)[C@](C)(O)[C@@H]1O)Oc1ccc(C(F)(F)F)cc1 (some centres not stated) , can you help?
a: >5

q: Consider next the molecule CCOC(=O)[C@H](C)NP(=O)(OC[C@H]1O[C@@H](n2ccc(N)nc2=O)[C@](C)(O)[C@@H]1O)Oc1cccc2ccccc12 (some centres not stated) in the same way.
a: 75

q: Would you kindly repeat that for CCOC(=O)[C@H](C)NP(=O)(OC[C@H]1O[C@@H](n2ccc(N)nc2=O)[C@](C)(O)[C@@H]1O)Oc1ccc2c(ccn2C(=O)OC(C)(C)C)c1 (some centres not stated) ?
a: 40

q: Query CCOC(=O)[C@H](C)NP(=O)(OC[C@H]1O[C@@H](n2ccc(N)nc2=O)[C@](C)(O)[C@@H]1O)OCC(Cl)(Cl)Cl (some centres not stated) next
a: >5

q: One more molecule: CCOC(=O)[C@H](C)NP(=O)(OC[C@H]1O[C@@H](n2ccc(N)nc2=O)[C@](C)(O)[C@@H]1O)Oc1ccccc1C(=O)OC (mixture of isomers)
a: >5

q: Same question for CCCCOC(=O)[C@H](C)NP(=O)(OC[C@H]1O[C@@H](n2ccc(N)nc2=O)[C@](C)(O)[C@@H]1O)Oc1ccccc1Cl (some centres not stated) please.
a: >23

q: Input CCCCOC(=O)[C@H](C)NP(=O)(OC[C@H]1O[C@@H](n2ccc(N)nc2=O)[C@](C)(O)[C@@H]1O)Oc1ccc(Cl)c2ccccc12 (mixture of isomers)
a: 125

q: Follow-up entry: COC(=O)[C@@H](C)NP(=O)(OC[C@H]1O[C@@H](n2ccc(N)nc2=O)[C@](C)(O)[C@@H]1O)Oc1ccc(Cl)cc1 (mixture of isomers)
a: >2.5

q: Similarly, CCOC(=O)[C@H](Cc1c[nH]c2ccccc12)NP(=O)(OC[C@H]1O[C@@H](n2ccc(N)nc2=O)[C@](C)(O)[C@@H]1O)Oc1ccc(Cl)cc1 (single isomer, unassigned) ?
a: >3

q: Moving on to CCCC[C@H](NP(=O)(OC[C@H]1O[C@@H](n2ccc(N)nc2=O)[C@](C)(O)[C@@H]1O)Oc1ccc(Cl)cc1)C(=O)OCC (mixture of isomers)
a: >13

q: Lookup CCOC(=O)[C@@H](NP(=O)(OC[C@H]1O[C@@H](n2ccc(N)nc2=O)[C@](C)(O)[C@@H]1O)Oc1ccc(Cl)cc1)c1ccccc1 (mixture of isomers)
a: >2.5

q: // query: COC(=O)[C@H](C)NP(=O)(OC[C@H]1O[C@@H](n2ccc(N)nc2=O)[C@](C)(O)[C@@H]1O)Oc1ccc(OC)cc1 (mixture of isomers)
a: >13

---

Experiment: Drug level in rabbit liver assessed as nucleoside triphosphate level at 1 mg/kg, sc after 24 hrs
Assay type: ADME, organism-based, Oryctolagus cuniculus
Design: dose 1 mg/kg, route subcutaneous
Conditions: in vivo, read-out: Drug uptake
recorded-endpoint: concentration (µM)
Write it as a number; the unit µM goes unstated.

q: Returns the measured concentration for the input molecule. Input: CCCC(CCC)COC(=O)[C@H](C)NP(=O)(O)OC[C@H]1O[C@@H](n2ccc(N)nc2=O)[C@](C)(O)[C@@H]1O
a: 4.1

---

Test: Selectivity index, ratio of CC50 for human HBI10A cells to EC50 for HCV infected in human HBI10A cells
recorded-endpoint: Ratio CC50/EC50

q: Quick check: Ratio CC50/EC50 of COC(=O)CNP(=O)(OC[C@H]1O[C@@H](n2ccc(N)nc2=O)[C@](C)(O)[C@@H]1O)Oc1ccc(Cl)cc1 (mixture of isomers) ?
a: >25

q: Moving on to CCOC(=O)[C@H](CC(C)C)NP(=O)(OC[C@H]1O[C@@H](n2ccc(N)nc2=O)[C@](C)(O)[C@@H]1O)Oc1ccc(Cl)cc1 (mixture of isomers)
a: >7

q: What do we get for CC(C)[C@H](N)C(=O)O[C@@H]1[C@@H](CO)O[C@@H](n2ccc(N)nc2=O)[C@]1(C)O ?
a: >13

---

Test: Cytotoxicity against human HBI10A cells
recorded-endpoint: CC50

q: Sample COC(=O)CNP(=O)(OC[C@H]1O[C@@H](n2ccc(N)nc2=O)[C@](C)(O)[C@@H]1O)Oc1ccc(Cl)cc1 (mixture of isomers) — what was its CC50?
a: > 20 µM

q: Same question for CCOC(=O)[C@H](C)NP(=O)(OC[C@H]1O[C@@H](n2ccc(N)nc2=O)[C@](C)(O)[C@@H]1O)Oc1ccc2c(ccn2C(=O)OC(C)(C)C)c1 (some centres not stated) please.
a: > 20 µM

q: What do you get for CCOC(=O)[C@H](C)NP(=O)(OC[C@H]1O[C@@H](n2ccc(N)nc2=O)[C@](C)(O)[C@@H]1O)OCC(Cl)(Cl)Cl (some centres not stated) ?
a: > 50 µM

q: Could you do the same for CC(C)[C@H](N)C(=O)O[C@@H]1[C@@H](CO)O[C@@H](n2ccc(N)nc2=O)[C@]1(C)O [VALOPICITABINE] , please?
a: > 100 µM

q: Same thing, different molecule: CCOC(=O)[C@H](C)NP(=O)(OC[C@H]1O[C@@H](n2ccc(N)nc2=O)[C@](C)(O)[C@@H]1O)Oc1cc(C)c(Cl)cc1C(C)C (some centres not stated)
a: 9 µM

q: What about CCOC(=O)[C@H](C)NP(=O)(OC[C@H]1O[C@@H](n2ccc(N)nc2=O)[C@](C)(O)[C@@H]1O)Oc1ccc(Cl)cc1 (some centres not stated) ?
a: > 20 µM

q: Now give it for CCOC(=O)[C@@H](NP(=O)(OC[C@H]1O[C@@H](n2ccc(N)nc2=O)[C@](C)(O)[C@@H]1O)Oc1ccc(Cl)cc1)c1ccccc1 (mixture of isomers) too.
a: > 20 µM
